Test system: L1210
protocol: Cytotoxicity against mouse L1210 cell line
Type: cell-based
conditionLabel: Mus musculus, L1210
measureName: IC50 (µM)

INSERT INTO measurements (compound, measurename, unitssymbol, modifiersign, numericreadout) VALUES
  ('CCCc1c2c(c(C)c3c1C(=O)OC3)Oc1ccccc1O2', 'IC50', 'µM', '>', 10),
  ('Cc1c2c(c(CCCCC(=O)O)c3c1Oc1ccccc1O3)C(=O)OC2', 'IC50', 'µM', '=', 89),
  ('Cc1c2c(c(CCCCCN)c3c1Oc1ccccc1O3)C(=O)OC2', 'IC50', 'µM', '=', 12.8),
  ('Cc1c2c(c(C)c3cnccc13)Oc1ccccc1O2', 'IC50', 'µM', '=', 1.2),
  ('CCCCCc1c2c(c(C)c3c1Oc1cc(OC)ccc1O3)C(=O)OC2', 'IC50', 'µM', '>', 10),
  ('CC1OC(=O)C2=C1Oc1ccccc1O2 (stereo not given)', 'IC50', 'µM', '>', 10),
  ('CCCCCc1c2c(c(C)c3c1C(=O)OC3)Oc1ccccc1O2', 'IC50', 'µM', '=', 1.8),
  ('CCCCCCCCc1c2c(c(C)c3c1C(=O)OC3)Oc1ccccc1O2', 'IC50', 'µM', '>', 10),
  ('Cc1c2c(c(CC(C)CC(C)(C)C)c3c1C(=O)OC3)Oc1ccccc1O2 (stereo not given)', 'IC50', 'µM', '>', 10),
  ('Cc1c2c(c(CCCCCC#N)c3c1Oc1ccccc1O3)C(=O)OC2', 'IC50', 'µM', '=', 0.54),
  ('CCCCCCCCc1c2c(c(C)c3c1Oc1ccccc1O3)C(=O)OC2', 'IC50', 'µM', '>', 10),
  ('CCCCCCc1c2c(c(C)c3c1Oc1ccccc1O3)C(=O)OC2', 'IC50', 'µM', '>', 10),
  ('CCc1c2c(c(C)c3c1C(=O)OC3)Oc1ccccc1O2', 'IC50', 'µM', '>', 10),
  ('Cc1c2c(c(CCCCCC(=O)O)c3c1Oc1ccccc1O3)C(=O)OC2', 'IC50', 'µM', '>', 10),
  ('Cc1c2c(c(CC(C)CC(C)(C)C)c3c1Oc1ccccc1O3)C(=O)OC2 (stereo not given)', 'IC50', 'µM', '=', 13.5),
  ('CCCCCCCc1c2c(c(C)c3c1C(=O)OC3)Oc1ccccc1O2', 'IC50', 'µM', '=', 3.9),
  ('CCCCc1c2c(c(C)c3c1Oc1ccccc1O3)C(=O)OC2', 'IC50', 'µM', '>', 100),
  ('Cc1c2c(c(CCCCC#N)c3c1Oc1ccccc1O3)C(=O)OC2', 'IC50', 'µM', '=', 77),
  ('CCCCCc1c2c(c(C)c3c1C(=O)OC3)Oc1ccc(OC)cc1O2', 'IC50', 'µM', '>', 10),
  ('COc1cccc2c1C(=O)c1c(O)c3c(c(O)c1C2=O)C[C@@](O)(C(=O)CO)C[C@@H]3O[C@H]1C[C@H](N)[C@H](O)[C@H](C)O1', 'IC50', 'µM', '=', 0.029);

Cited source: ChEMBL document CHEMBL1139834
